Molecular target: SW1573 HiBiT-KRASG12C (Homo sapiens, UniProt P01116, G12C)
Construct: expressed in transfected cells
Sequence (P01116 1-188 isoform P01116-2 G12C): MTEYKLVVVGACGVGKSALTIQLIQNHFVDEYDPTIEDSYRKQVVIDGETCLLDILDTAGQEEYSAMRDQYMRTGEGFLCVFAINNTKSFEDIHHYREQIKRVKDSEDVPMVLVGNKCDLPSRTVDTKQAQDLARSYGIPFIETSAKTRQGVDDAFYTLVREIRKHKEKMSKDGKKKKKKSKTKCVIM
Test: HiBiT degradation assay (G12C), SW1573 HiBiT-KRASG12C cells;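 note: Letter grades: C is 1000 to 3000 nM and D is above 3000 nM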
Format: cell-based
Settings: 24 hours treatment, HiBiT luminescence
measured_endpoint: DC50

In: // fetch SW1573 HiBiT-KRASG12C (Homo sapiens, UniProt P01116, G12C) DC50 for CCc1cccc2cc(O)cc(-c3ncc4c(N5CC6CCC(C5)N6)nc(OC[C@]56CCCN5[C@@H](COc5cc(C(C(=O)N7C[C@H](O)C[C@H]7C(=O)N[C@@H](C)c7ccc(-c8scnc8C)cc7)C(C)C)on5)CC6)nc4c3F)c12 (some centres unmarked) [Compound 38]
Out: 1 to 3 µM

In: // fetch SW1573 HiBiT-KRASG12C (Homo sapiens, UniProt P01116, G12C) DC50 for CCc1cccc2cc(O)cc(-c3ncc4c(N5CC6CCC(C5)N6)nc(OC[C@@]56CCCN5[C@H](COC(=O)N5CCN(c7cc([C@H](C(=O)N8C[C@H](O)C[C@H]8C(=O)N[C@@H](C)c8ccc(-c9scnc9C)cc8)C(C)C)on7)CC5)CC6)nc4c3F)c12 [Compound 5]
Out: ≤ 0.6 µM

In: // fetch SW1573 HiBiT-KRASG12C (Homo sapiens, UniProt P01116, G12C) DC50 for CCc1cccc2cc(O)cc(-c3ncc4c(N5CC6CCC(C6)C5)nc(OCCN5CCC(COCC(=O)N[C@H](C(=O)N6C[C@H](O)C[C@H]6C(=O)N[C@@H](C)c6ccc(-c7scnc7C)cc6)C(C)(C)C)CC5)nc4c3F)c12 [Compound 19]
Out: 1 to 3 µM

In: // fetch SW1573 HiBiT-KRASG12C (Homo sapiens, UniProt P01116, G12C) DC50 for CCc1cccc2cccc(-c3ncc4c(N5CC6CCC(C5)N6)nc(OC[C@]56CCCN5[C@@H](COC(=O)N5CCN(c7cc([C@H](C(=O)N8C[C@H](O)C[C@H]8C(=O)N[C@@H](C)c8ccc(-c9scnc9C)cc8)C(C)C)on7)CC5)CC6)nc4c3F)c12 [Compound 34]
Out: > 3 µM

In: // fetch SW1573 HiBiT-KRASG12C (Homo sapiens, UniProt P01116, G12C) DC50 for Cc1ncsc1-c1ccc([C@H](C)NC(=O)[C@@H]2C[C@@H](O)CN2C(=O)[C@@H](c2cc(N3CCN(C(=O)OC[C@H]4CC[C@@]5(COc6nc(N7CC8CCC(C7)N8)c7cnc(-c8cc(O)cc9ccccc89)c(F)c7n6)CCCN45)CC3)no2)C(C)C)cc1 [Compound 37]
Out: > 3 µM

In: // fetch SW1573 HiBiT-KRASG12C (Homo sapiens, UniProt P01116, G12C) DC50 for CCc1cccc2cc(O)cc(-c3ncc4c(N5CC6CCC(C5)N6)nc(OCCN5CCC(COc6cc([C@@H](C(=O)N7C[C@H](O)C[C@H]7C(=O)N[C@@H](C)c7ccc(-c8scnc8C)cc7)C(C)C)on6)CC5)nc4c3F)c12 [Compound 8]
Out: > 3 µM

In: // fetch SW1573 HiBiT-KRASG12C (Homo sapiens, UniProt P01116, G12C) DC50 for CCc1cccc2cc(O)cc(-c3ncc4c(N5CC6CCC(C5)N6)nc(OCCN5CCC(OCCOCC(=O)N[C@H](C(=O)N6C[C@H](O)C[C@H]6C(=O)N[C@@H](C)c6ccc(-c7scnc7C)cc6)C(C)(C)C)CC5)nc4c3F)c12 [Compound 11]
Out: > 3 µM

In: // fetch SW1573 HiBiT-KRASG12C (Homo sapiens, UniProt P01116, G12C) DC50 for CCc1cccc2cc(O)cc(-c3ncc4c(N5CC6CCC(C5)N6)nc(OC[C@@]56CCCN5[C@H](COCC(=O)N[C@H](C(=O)N5C[C@H](O)C[C@H]5C(=O)N[C@@H](C)c5ccc(-c7scnc7C)cc5)C(C)(C)C)CC6)nc4c3F)c12 [Compound 2]
Out: 1 to 3 µM

---

Provide the recorded Dmax for the entries that follow.
Target: AsPC-1 HiBiT-KRASG12D (Homo sapiens, UniProt P01116, G12D)
Construct: insert the HiBiT tag onto the N-terminus of one or more of the endogenous KRAS alleles; endogenous in cells; host or cells: AsPC-1 (ATCC CRL-1682), CRISPR-Cas9 knock-in clone, one tagged allele
Sequence (P01116 1-188 isoform P01116-2 G12D): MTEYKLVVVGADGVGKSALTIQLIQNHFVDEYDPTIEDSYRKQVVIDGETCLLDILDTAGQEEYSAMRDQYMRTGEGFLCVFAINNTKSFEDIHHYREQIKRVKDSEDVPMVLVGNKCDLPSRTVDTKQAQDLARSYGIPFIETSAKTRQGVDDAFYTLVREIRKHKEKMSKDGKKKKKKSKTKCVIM
Test: HiBiT degradation assay (G12D), AsPC-1 HiBiT-KRASG12D cells
Type: cell-based
Conditions: ASPC1, AsPC-1 HiBiT-KRASG12D cells, 24 hours treatment, maximum degradation observed

In: Name the reported Dmax value associated with the compound `CCc1cccc2cc(O)cc(-c3ncc4c(N5CC6CCC(C5)N6)nc(OC[C@]56CCCN5[C@H](COc5cc([C@H](C(=O)N7C[C@H](O)C[C@H]7C(=O)N[C@@H](C)c7ccc(-c8scnc8C)cc7)C(C)C)on5)CC6)nc4c3F)c12`
Out: 60 to 80%

In: Name the reported Dmax value associated with the compound `Cc1ncsc1-c1ccc([C@H](C)NC(=O)[C@@H]2C[C@@H](O)CN2C(=O)[C@@H](c2cc(OCC3CCN(CCOc4nc(N5CC6CCC(C5)N6)c5cnc(-c6cc(O)cc(Cl)c6C(F)(F)F)c(F)c5n4)CC3)no2)C(C)C)cc1`
Out: 80 to 100%

In: Name the reported Dmax value associated with the compound `CCc1cccc2cc(O)cc(-c3ncc4c(N5CCCCCC5)nc(OC[C@]56CCCN5[C@H](COC(=O)N5CC(Oc7cc([C@H](C(=O)N8C[C@H](O)C[C@H]8C(=O)N[C@@H](C)c8ccc(-c9scnc9C)cc8)C(C)C)on7)C5)CC6)nc4c3F)c12`
Out: 80 to 100%

In: Name the reported Dmax value associated with the compound Cc1ncsc1-c1ccc([C@H](C)NC(=O)[C@@H]2C[C@@H](O)CN2C(=O)[C@@H](c2cc(N3CCN(C(=O)OC[C@@H]4CC[C@@]5(COc6nc(N7CC8CCC(C7)N8)c7cc(Cl)c(-c8cc(O)cc9ccccc89)c(F)c7n6)CCCN45)CC3)no2)C(C)C)cc1 (relative stereo)
Out: 60 to 80%

---

Target: AsPC-1 HiBiT-KRASG12D (Homo sapiens, UniProt P01116, G12D)
Construct: insert the HiBiT tag onto the N-terminus of one or more of the endogenous KRAS alleles; endogenous in cells; host or cells: AsPC-1 (ATCC CRL-1682), CRISPR-Cas9 knock-in clone, one tagged allele
Assay: HiBiT degradation assay (G12D), AsPC-1 HiBiT-KRASG12D cells
Type: cell-based
Details: AsPC-1 HiBiT-KRASG12D cells, 24 hours treatment, HiBiT luminescence
measured_endpoint: DC50

In: Name the reported DC50 value associated with the compound CCc1cccc2cc(O)cc(-c3ncc4c(N5CC6CCC(C5)N6)nc(OC[C@@]56CCCN5[C@H](CN5CCN(c7cc([C@@H](C(=O)N8C[C@H](O)C[C@H]8C(=O)N[C@@H](C)c8ccc(-c9scnc9C)cc8)C(C)C)on7)CC5)CC6)nc4c3F)c12 [Compound 95]
Out: > 3000 nM

In: Name the reported DC50 value associated with the compound CCc1cccc2cc(O)cc(-c3ncc4c(N5CC6CCC(C5)N6)nc(OCCN5CCC(C6CN(c7cc([C@@H](C(=O)N8C[C@H](O)C[C@H]8C(=O)N[C@@H](C)c8ccc(-c9scnc9C)cc8)C(C)C)on7)C6)CC5)nc4c3F)c12 (single isomer, unassigned) [Compound 277]
Out: 1000 to 3000 nM

In: Name the reported DC50 value associated with the compound CCc1cccc2cccc(-c3ncc4c(N5CC6CCC(C5)N6)nc(OC[C@]56CCCN5[C@H](COC(=O)N5CC(Oc7cc([C@H](C(=O)N8C[C@H](O)C[C@H]8C(=O)N[C@@H](C)c8ccc(-c9scnc9C)cc8)C(C)C)on7)C5)CC6)nc4c3F)c12 [Compound 225]
Out: < 600 nM

In: Name the reported DC50 value associated with the compound CCc1cccc2cccc(-c3ncc4c(N5CC6CCC(C5)N6)nc(OC[C@@H]5CC[C@@H](COC(=O)N6CCN(c7cc([C@H](C(=O)N8C[C@H](O)C[C@H]8C(=O)N[C@@H](C)c8ccc(-c9scnc9C)cc8)C(C)C)on7)[C@H](C)C6)N5C)nc4c3F)c12 [Compound 222]
Out: < 600 nM

In: Name the reported DC50 value associated with the compound CCc1cccc2cccc(-c3ncc4c(N5CC6CCC(C5)N6)nc(OC[C@@]56CCCN5[C@H](COC(=O)N5CCN(c7cc([C@H](C(=O)N8C[C@H](O)C[C@H]8C(=O)N[C@@H](C)c8ccc(-c9scnc9C)cc8)C(C)C)on7)CC5)CC6)nc4c3F)c12 [Compound 35]
Out: < 600 nM

In: Name the reported DC50 value associated with the compound CCc1cccc2cc(O)cc(-c3ncc4c(N5CC6CCC(C5)N6)nc(OCCN5CCC(C)(COc6cc([C@@H](C(=O)N7C[C@H](O)C[C@H]7C(=O)N[C@@H](C)c7ccc(-c8scnc8C)cc7)C(C)C)on6)CC5)nc4c3F)c12 [Compound 31]
Out: > 3000 nM

In: Name the reported DC50 value associated with the compound CCc1cccc2cc(O)cc(-c3ncc4c(N5CC6CCC(C5)N6)nc(OC[C@@H]5CC[C@@H](COC(=O)N6CCN(c7cc([C@@H](C(=O)N8C[C@H](O)C[C@H]8C(=O)N[C@@H](C)c8ccc(-c9scnc9C)cc8)C(C)C)on7)CC6)N5C)nc4c3F)c12 [Compound 289]
Out: 1000 to 3000 nM

In: Name the reported DC50 value associated with the compound CCc1cccc2cc(O)cc(-c3ncc4c(N5CC6CCC(C5)N6)nc(OC[C@@H]5CC[C@]6(COC(=O)N7CCN(c8cc([C@H](C(=O)N9C[C@H](O)C[C@H]9C(=O)N[C@@H](C)c9ccc(-c%10scnc%10C)cc9)C(C)C)on8)CC7)CCCN56)nc4c3F)c12 [Compound 342]
Out: < 600 nM
